Target: AMPA receptor
Test: Antagonism of AMPA-induced depolarization of rat cortical wedges
Assay type: cell-based
Settings: Table III; racemic; AMPA 40 μM; mean ± standard error (n = 3); read-out: IC50 AMPA, antagonism of cortical wedge depolarization
Measured Parameter: pIC50
The meaning of pIC50 here: minus log10 of the concentration in molar units.

Field: example entries. Status: answers known.
[[record]]
molecule = "O=C(O)[C@@H]1C[C@H]2C[C@@H](COCc3nnn[nH]3)CC[C@H]2CN1 (racemic)"
measured_parameter = "pIC50"
numeric_result = 4.80

[[record]]
molecule = "O=C(O)[C@@H]1C[C@H]2C[C@@H](CCc3nn[nH]n3)CC[C@H]2CN1 (relative stereo)"
measured_parameter = "pIC50"
numeric_result = 5.22

[[record]]
molecule = "O=C(O)[C@@H]1C[C@H]2C[C@@H](CSc3nnn[nH]3)CC[C@H]2CN1 (racemic)"
measured_parameter = "pIC50"
numeric_result = 5.48

[[record]]
molecule = "O=C(O)[C@@H]1C[C@H]2C[C@H](CSc3nnn[nH]3)CC[C@H]2CN1 (racemic)"
measured_parameter = "pIC50"
numeric_result = 5.21

[[record]]
molecule = "O=C(O)[C@@H]1C[C@H]2C[C@@H](C(Cc3nn[nH]n3)c3ccccc3)CC[C@H]2CN1 (some centres unmarked)"
measured_parameter = "pIC50"
numeric_result = 5.05


Let us examine a further case.
If you can, please state the reported pIC50 value of O=C(O)[C@@H]1C[C@H]2C[C@@H](CCc3cc(O)no3)CC[C@H]2CN1 (racemic) . 4.78

###

Reported pIC50 values for a set of compounds
Tested on: NMDA receptor
Assay: Antagonism of NMDA-induced depolarization of rat cortical wedges
Type: cell-based
Details: Table III; racemic; NMDA 40 μM; mean ± standard error (n = 3); read-out: IC50 NMDA, antagonism of cortical wedge depolarization
pIC50: −log10 of the molar value.

[[record]]
compound = "O=C(O)[C@@H]1C[C@H]2C[C@@H](CCc3nn[nH]n3)CC[C@H]2CN1 (relative stereo)"
assayed_system = "NMDA receptor"
result = 4.21

[[record]]
compound = "O=C(O)[C@@H]1C[C@H]2C[C@@H](CCSc3nnn[nH]3)CC[C@H]2CN1 (racemic)"
assayed_system = "NMDA receptor"
result = "< 4.00"

[[record]]
compound = "O=C(O)CC[C@H]1CC[C@H]2CN[C@H](C(=O)O)C[C@H]2C1 (racemic)"
assayed_system = "NMDA receptor"
result = 4.24

[[record]]
compound = "O=C(O)[C@@H]1C[C@H]2C[C@@H](CCCCc3nnn[nH]3)CC[C@H]2CN1 (racemic)"
assayed_system = "NMDA receptor"
result = "< 4.00"

[[record]]
compound = "O=C(O)[C@@H]1C[C@H]2C[C@@H](C(Cc3nn[nH]n3)c3ccccc3)CC[C@H]2CN1 (some centres unmarked)"
assayed_system = "NMDA receptor"
result = 4.00


Give NMDA receptor pIC50 for O=C(O)[C@@H]1C[C@H]2C[C@@H](CSc3nnn[nH]3)CC[C@H]2CN1 (racemic) < 4.00

Moving on to the next compound: O=C(O)[C@@H]1C[C@H]2C[C@@H](C=Cc3nsnc3O)CC[C@H]2CN1 (racemic) < 4.00

Moving on to the next compound: O=C(O)[C@@H]1C[C@H]2C[C@@H](CS(=O)(=O)c3ncn[nH]3)CC[C@H]2CN1 (racemic) < 4.00
